# TEST PROTOCOL: LogD shake flask (octanol/PBS)
# Type: physicochemical
# SETUP CONDITIONS: measured log D
// reported logD at 12 h, 100 µM per item

>  <COMPOUND>
CN1CCC(Oc2ccc3ncc(-c4cnn(-c5ccc(F)cc5)c4)n3n2)CC1

>  <logD at 12 h, 100 µM>
2.6

$$$$
>  <COMPOUND>
CN1CCC(Nc2ccc3ncc(-c4cnn(-c5cccc(C#N)c5)c4)n3n2)CC1

>  <logD at 12 h, 100 µM>
2.7

$$$$
>  <COMPOUND>
Fc1ccc(-n2cc(-c3cnc4ccc(N[C@H]5CC[C@H](N6CCCC6)CC5)nn34)cn2)cc1

>  <logD at 12 h, 100 µM>
2.8

$$$$
>  <COMPOUND>
CN1CCC(Nc2ccc3ncc(-c4cnn(-c5ccccc5F)c4)n3n2)CC1

>  <logD at 12 h, 100 µM>
3.4

$$$$
>  <COMPOUND>
CN1CCCC(c2ccn3ncc(-c4cnn(-c5ccc(F)cc5)c4)c3n2)C1 (centres unmarked)

>  <logD at 12 h, 100 µM>
2.5

$$$$
>  <COMPOUND>
CN1CCC(Nc2ccc3ncc(-c4cnn(-c5cnccn5)c4)n3n2)CC1

>  <logD at 12 h, 100 µM>
2.2

$$$$
>  <COMPOUND>
CN1CCC(Nc2ccc3ncc(-c4cnn(-c5ncc(F)cn5)c4)n3n2)CC1

>  <logD at 12 h, 100 µM>
2

$$$$
>  <COMPOUND>
CN1CCC(Nc2ccc3ncc(-c4cnn(-c5ccc(C#N)cc5)c4)n3n2)CC1

>  <logD at 12 h, 100 µM>
1.9

$$$$
>  <COMPOUND>
c1ccc(-n2cc(-c3cnc4ccc(NC5CCNCC5)nn34)cn2)cc1

>  <logD at 12 h, 100 µM>
1.8

$$$$
>  <COMPOUND>
N[C@H]1CC[C@H](Nc2ccc3ncc(-c4cnn(-c5ccc(F)cc5)c4)n3n2)CC1

>  <logD at 12 h, 100 µM>
1.9

$$$$
>  <COMPOUND>
Fc1ccc(-n2cc(-c3cnn4ccc(C5CCCNC5)nc34)cn2)cc1 (centres unmarked)

>  <logD at 12 h, 100 µM>
1.4

$$$$

* * *

# TEST PROTOCOL: Microsomal turnover, mouse liver microsomes
# Type: in vitro ADME
# SETUP CONDITIONS: % remaining after 30 min, 1 μM compound

>  <MOLECULE>
CN1CCC(Nc2ccc3ncc(-c4cnn(-c5cccc(C#N)c5)c4)n3n2)CC1

>  <MLM % rem>
59%

$$$$
>  <MOLECULE>
CN1CCC(Nc2ccc3ncc(-c4cnn(-c5cnccn5)c4)n3n2)CC1

>  <MLM % rem>
51%

$$$$
>  <MOLECULE>
Fc1ccc(-n2cc(-c3cnn4ccc(C5CCCNC5)nc34)cn2)cc1 (stereo not drawn)

>  <MLM % rem>
56%

$$$$
>  <MOLECULE>
CN1CCC(Oc2ccc3ncc(-c4cnn(-c5ccc(F)cc5)c4)n3n2)CC1

>  <MLM % rem>
38%

$$$$
>  <MOLECULE>
Fc1ccc(-n2cc(-c3cnc4ccc(N[C@H]5CC[C@H](N6CCCC6)CC5)nn34)cn2)cc1

>  <MLM % rem>
66%

$$$$
>  <MOLECULE>
N[C@H]1CC[C@H](Nc2ccc3ncc(-c4cnn(-c5ccc(F)cc5)c4)n3n2)CC1

>  <MLM % rem>
84%

$$$$
>  <MOLECULE>
c1ccc(-n2cc(-c3cnc4ccc(NC5CCNCC5)nn34)cn2)cc1

>  <MLM % rem>
74%

$$$$
>  <MOLECULE>
CN1CCCC(c2ccn3ncc(-c4cnn(-c5ccc(F)cc5)c4)c3n2)C1 (stereo not drawn)

>  <MLM % rem>
33%

$$$$
>  <MOLECULE>
CN1CCC(Nc2ccc3ncc(-c4cnn(-c5ccc(C#N)cc5)c4)n3n2)CC1

>  <MLM % rem>
59%

$$$$
